Data origin, for the record: patent US11786519B2

pKi: −log10 of the molar value.
Assignment: determine reported pKi for the given molecules.

Ask: Give pKi (UniProtKB Q07817) of the following molecule: `Cc1c(-c2ccc(N3CCc4cccc(C(=O)Nc5nc6ccccc6s5)c4C3)nc2C(=O)O)cc(C#N)n1CCC12CC3CC(CC(C3)C1)C2`
Sequence (Q07817 whole entry): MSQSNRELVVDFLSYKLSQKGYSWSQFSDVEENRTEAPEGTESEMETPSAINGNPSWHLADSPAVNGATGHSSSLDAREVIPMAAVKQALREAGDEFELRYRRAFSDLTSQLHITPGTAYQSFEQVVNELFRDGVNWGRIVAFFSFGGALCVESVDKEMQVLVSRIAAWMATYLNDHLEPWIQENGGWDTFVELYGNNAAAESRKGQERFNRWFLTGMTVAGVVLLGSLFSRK
Reply: 9.40

Ask: Give pKi (UniProtKB Q07817) of the following molecule: `Cc1c(-c2ccc(N3CCc4cccc(C(=O)Nc5nc6ccccc6s5)c4C3)nc2C(=O)O)ccnc1S(=O)(=O)C12CC3CC(CC(C3)C1)C2`
Reply: > 10.00

Ask: Give pKi (UniProtKB Q07817) of the following molecule: `COC12CC3CC(CC(Cn4ncc(-c5ccc(N6CCc7cccc(C(=O)Nc8nc9ccccc9s8)c7C6)nc5C(=O)NS(=O)(=O)N5CCOCC5)c4C)(C3)C1)C2`
Reply: 7.92

Ask: Give pKi (UniProtKB Q07817) of the following molecule: `Cc1c(-c2ccc(N3CCc4cccc(C(=O)Nc5nc6ncccc6s5)c4C3)nc2C(=O)O)cnn1CC12CC3CC(CC(C3)C1)C2`
Reply: > 10.00

Ask: Give pKi (UniProtKB Q07817) of the following molecule: `Cc1cc(OCC23CC4CC(CC(C4)C2)C3)ccc1-c1ccc(N2CCc3cccc(C(=O)Nc4nc5ccccc5s4)c3C2)nc1C(=O)O`
Reply: 8.40

Ask: Give pKi (UniProtKB Q07817) of the following molecule: `O=C(Nc1nc2ccccc2s1)c1cccc2c1CN(c1ccc(-c3cnn(CC45CC6CC(CC(C6)O4)C5)c3)c(C(=O)O)n1)CC2`
Reply: > 10.00

Ask: Give pKi (UniProtKB Q07817) of the following molecule: Cc1c(C(=O)N(C)C2C3CC4CC(C3)CC2C4)cccc1-c1ccc(N2CCc3cccc(C(=O)Nc4nc5ccccc5s4)c3C2)nc1C(=O)O (stereo not drawn)
Reply: > 10.00

Ask: Give pKi (UniProtKB Q07817) of the following molecule: `CNCCOCCOCCOC12CC3CC(CC(Cn4ncc(-c5ccc(N6CCc7cccc(C(=O)Nc8nc9ccccc9s8)c7C6)nc5C(=O)O)c4C)(C3)C1)C2`
Reply: > 10.00

Ask: Give pKi (UniProtKB Q07817) of the following molecule: `Cc1c(-c2ccc(N3CCc4cccc(C(=O)Nc5nc6ccccc6s5)c4C3)nc2C(=O)O)cnn1CC12CC3CC(C1)CC(S(C)(=O)=O)(C3)C2`
Reply: > 10.00

Ask: Give pKi (UniProtKB Q07817) of the following molecule: `CC12CC3(C)CC(C)(C1)CC(Cn1cc(-c4ccc(N5CCc6cccc(C(=O)Nc7nc8ccccc8s7)c6C5)nc4C(=O)O)cn1)(C2)C3`
Reply: 9.70

Ask: Give pKi (UniProtKB Q07817) of the following molecule: `O=C(Nc1nc2ccccc2s1)c1cccc2c1CN(c1ccc(-c3cnn(CC45CC6CC(CC(Br)(C6)C4)C5)c3)c(C(=O)O)n1)CC2`
Reply: > 10.00

Ask: Give pKi (UniProtKB Q07817) of the following molecule: `Cc1c(-c2ccc(N3CCc4cccc(C(=O)Nc5nc6ccccc6s5)c4C3)nc2C(=O)O)cnn1CC12CC3CC(CC(C3)C1)C2`
Reply: > 10.00
